Target: recombinant human BACE-1 (rhBACE-1) (Homo sapiens, UniProt P56817)
Construct: expressed as only an extracellular region (amino acid 1-460 residues) of recombinant human β-secretase; His tag (C); purchased R&D systems (Minneapolis, Minn.); host or cells: murine myeloma cell line NS0
Sequence (P56817 22-460 limits assumed): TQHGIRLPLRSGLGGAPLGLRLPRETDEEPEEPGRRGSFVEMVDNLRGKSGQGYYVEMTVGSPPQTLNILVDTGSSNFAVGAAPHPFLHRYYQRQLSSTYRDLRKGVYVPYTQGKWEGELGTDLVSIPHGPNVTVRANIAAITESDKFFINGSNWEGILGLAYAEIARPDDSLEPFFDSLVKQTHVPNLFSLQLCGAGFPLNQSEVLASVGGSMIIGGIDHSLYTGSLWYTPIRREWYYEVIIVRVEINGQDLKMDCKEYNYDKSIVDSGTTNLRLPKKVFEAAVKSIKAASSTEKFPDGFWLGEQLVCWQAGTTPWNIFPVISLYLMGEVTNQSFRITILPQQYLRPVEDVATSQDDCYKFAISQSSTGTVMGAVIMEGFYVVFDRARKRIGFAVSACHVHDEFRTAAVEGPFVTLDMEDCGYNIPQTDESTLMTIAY
Test: BACE1 inhibitory activity, reverse phase HPLC quantitation of N-terminal fragment of fluorogenic substrate
Format: biochemical
Settings: 1 μL of inhibitor solution in DMSO (100 μM) in 50 μL reaction; MES buffer pH 5.0; 37° C., 60 minutes
Source text: Experiment Regarding Measurement of BACE1 Inhibitory Activity Enzyme Used in Measurement As an enzyme having β-secretase activity, recombinant human BACE-1 (rhBACE-1) purchased from R&D systems (Minneapolis, Minn.) was used. rhBACE-1 is expressed as only an extracellular region (amino acid 1-460 residues) of recombinant human β-secretase, with a His tag at its carboxyl terminal in murine myeloma cell line, NS0. […]
Numbered stars: 1 amine (or outer) side, 2 acyl side, 3 side chain; on linkers, the order of the positions; unused ones are H or OH. Square brackets hold non-standard residues; d marks the D form. Peptide text beside a SMILES is read from it. * marks the point of attachment. β3hPhe(2R-OH) = O=C([C@H](O)[C@H](Cc1ccccc1)N[*:1])[*:2]; X2 = O=C([C@H](O)[C@H](CSc1ccccc1)N[*:1])[*:2]; 3Abz = Nc1cccc(C(=O)O)c1; Dap = NC[C@H](N)C(=O)O; X4 = CCOC(=O)C(=O)*
Label met for high-side inhibition at 2 µM (at or above 80%) and not met for low-side inhibition at 2 µM (below it).

{"columns": ["COMPOUND", "TARGET OR SYSTEM", "ANSWER LABEL"],
 "data": [
  ["CC(C)C[C@H](NC(=O)[C@@H](NC(=O)[C@@H](N)CCC(=O)O)C(C)C)C(=O)N[C@@H](Cc1ccccc1)[C@@H](O)C(=O)Nc1cc(Cl)c(OCC(=O)O)c(Cl)c1", "recombinant human BACE-1 (rhBACE-1) (Homo sapiens, UniProt P56817)", "met"]
]}

Query string: Test whether the compound `CC(C)[C@H](NC(=O)[C@@H](N)CCC(=O)O)C(=O)N[C@@H](Cc1ccc(Cl)cc1)C(=O)N[C@@H](Cc1ccccc1)[C@@H](O)C(=O)Nc1cccc(C(=O)O)c1` records inhibition at 2 µM of 80% or higher.
Result string: not met

Query string: Test whether the compound `Cc1c(NC(=O)[C@H](O)[C@H](Cc2ccccc2)NC(=O)[C@H](CC(C)C)NC(=O)[C@@H](NC(=O)[C@@H](N)CCC(=O)O)C(C)C)cccc1C(=O)O` records inhibition at 2 µM of 80% or higher.
Result string: not met

Query string: Test whether the compound `CC(C)[C@H](NC(=O)[C@@H](N)CCC(=O)O)C(=O)N[C@@H](CCc1ccccc1)C(=O)N[C@@H](Cc1ccccc1)[C@@H](O)C(=O)Nc1cccc(C(=O)O)c1` records inhibition at 2 µM of 80% or higher.
Result string: met

Query string: Test whether the compound CC(C)C[C@H](NC(=O)[C@@H](NC(=O)[C@@H](N)CCC(=O)O)C(C)C)C(=O)N[C@@H](Cc1ccccc1)[C@@H](O)C(=O)N[C@H](CC(=O)O)C(=O)O [Example 100] (H-EVL[β3hPhe(2R-OH)][dD]-OH) records inhibition at 2 µM of 80% or higher.
Result string: not met

Query string: Test whether the compound CC(C)C[C@H](NC(=O)[C@@H](NC(=O)[C@@H](N)CCC(=O)O)C(C)C)C(=O)N[C@@H](CSc1ccccc1)[C@@H](O)C(=O)N[C@@H](CC(=O)O)C(=O)O [Example 90] (H-EVL[X2]D-OH) records inhibition at 2 µM of 80% or higher.
Result string: not met

Query string: Test whether the compound CCOC(=O)C(=O)NC[C@H](N)C(=O)N[C@H](C(=O)N[C@@H](CC(C)C)C(=O)N[C@@H](Cc1ccccc1)[C@@H](O)C(=O)N[C@@H](CC(=O)O)C(=O)N[C@@H](C)C(=O)N[C@@H](CCC(=O)O)C(=O)O)C(C)C [Example 95] (H-[Dap](X4)VL[β3hPhe(2R-OH)]DAE-OH) records inhibition at 2 µM of 80% or higher.
Result string: not met

Query string: Test whether the compound `CCOC(=O)COc1c(Cl)cc(NC(=O)[C@H](O)[C@H](Cc2ccccc2)NC(=O)[C@H](CC(C)C)NC(=O)[C@@H](NC(=O)[C@@H](N)CCC(=O)O)C(C)C)cc1Cl` records inhibition at 2 µM of 80% or higher.
Result string: not met

Query string: Test whether the compound CC(C)C[C@H](NC(=O)[C@@H](NC(=O)[C@@H](N)CCC(=O)O)C(C)C)C(=O)N[C@@H](Cc1ccccc1)[C@@H](O)C(=O)N[C@@H](CC(C)C)C(=O)N[C@@H](C)C(=O)N[C@@H](CCC(=O)O)C(=O)N[C@@H](Cc1ccccc1)C(=O)O [Example 107] (H-EVL[β3hPhe(2R-OH)]LAEF-OH) records inhibition at 2 µM of 80% or higher.
Result string: not met

Query string: Test whether the compound `CC(C)[C@H](NC(=O)[C@@H](N)CNC(=O)c1nnn[nH]1)C(=O)N[C@@H](CC1CCCCC1)C(=O)N[C@@H](Cc1ccccc1)[C@@H](O)C(=O)Nc1cc(C(=O)O)cc(C(=O)O)c1` records inhibition at 2 µM of 80% or higher.
Result string: met

Query string: Test whether the compound `CC(C)C[C@H](NC(=O)[C@@H](NC(=O)[C@@H](N)CNC(=O)c1cc(=O)[nH]c(=O)[nH]1)C(C)C)C(=O)N[C@@H](Cc1ccccc1)[C@@H](O)C(=O)Nc1cccc(C(=O)O)c1` records inhibition at 2 µM of 80% or higher.
Result string: met

Query string: Test whether the compound `COc1cc(NC(=O)[C@H](O)[C@H](Cc2ccccc2)NC(=O)[C@H](CC(C)C)NC(=O)[C@@H](NC(=O)[C@@H](N)CCC(=O)O)C(C)C)cc(OC)c1` records inhibition at 2 µM of 80% or higher.
Result string: not met

Query string: Test whether the compound CC(C)C[C@H](NC(=O)[C@@H](NC(=O)[C@@H](N)CCC(=O)O)C(C)C)C(=O)N[C@@H](Cc1ccccc1)[C@@H](O)C(=O)N[C@@H](CC(=O)O)C(=O)Nc1cccc(C(=O)O)c1 [Example 79] (H-EVL[β3hPhe(2R-OH)]D[3Abz]-OH) records inhibition at 2 µM of 80% or higher.
Result string: met

Query string: Test whether the compound `CC(C)C[C@H](NC(=O)[C@@H](NC(=O)[C@@H](N)CNC(=O)c1nnn[nH]1)C(C)C)C(=O)N[C@@H](Cc1ccccc1)[C@@H](O)C(=O)Nc1cc(C(=O)O)cc(C(=O)O)c1` records inhibition at 2 µM of 80% or higher.
Result string: met

Query string: Test whether the compound CC(C)C[C@H](NC(=O)[C@@H](NC(=O)[C@@H](N)CCC(=O)O)C(C)C)C(=O)N[C@@H](Cc1ccccc1)[C@@H](O)C(=O)N[C@@H](CC(=O)O)C(=O)N[C@@H](C)C(=O)N[C@@H](CC(=O)O)C(=O)O [Example 98] (H-EVL[β3hPhe(2R-OH)]DAD-OH) records inhibition at 2 µM of 80% or higher.
Result string: not met

Query string: Test whether the compound `CC(C)C[C@H](NC(=O)[C@@H](NC(=O)[C@@H](N)CCC(=O)O)C(C)C)C(=O)N[C@@H](Cc1ccccc1)[C@@H](O)C(=O)Nc1cc(C(N)=O)cc(C(=O)O)c1` records inhibition at 2 µM of 80% or higher.
Result string: met
